Data provenance is ChEMBL document CHEMBL3272032.

- Test system: Lacticaseibacillus casei
- procedure_details: Antibacterial activity against sensitive Lactobacillus casei ATCC 7469 assessed as reduction in growth in presence of 0.001 ug/ml folic acid
- Format: functional, organism-based
Calls of active or inactive are those of the source. The calls are words filed in the database; no cut-off is given here.
recorded_endpoint: inhibition

compound	inhibition
Cc1nc(C)c(Cl)c(O)c1Cl	Active
CCCCN(CCCC)CC(O)c1cc(-c2ccc(Cl)c(Cl)c2)nc2c(Cl)cc(Cl)cc12 (configuration not stated)	Active
Cc1ccccc1-c1nc2c(N)nc(N)nc2nc1N	inactive
CCc1ccc(N2C(N)=NC(N)=NC2(C)C)cc1	inactive
C/C(=C\C(=N\NC(=N)N)c1ccccc1)c1ccccc1	Active

Form: compound = `CCc1nc(N)nc(N)c1-c1ccc(Cl)cc1` ; inhibition = inactive

Memo: `CC1(C)N=C(N)N=C(N)N1OCCCOc1cc(Cl)c(Cl)cc1Cl` , reported inhibition: inactive

The measured inhibition associated with `Nc1ncc(Cc2ccc3c(c2)OCO3)c(N)n1` reads inactive

Just so you know, measured inhibition for `Nc1nc(N)c2c(ccc3cc(Br)ccc32)n1` came out at inactive

Reported inhibition ( `CCN(CC)CCNc1nc(C(Cl)(Cl)Cl)nc2cc(Cl)ccc12` ) = Active

For reference, reported inhibition for `Nc1nc(N)c2cc(NCc3ccc(Cl)c(Cl)c3)ccc2n1` stands at inactive

Per the record, COc1cc(NC(C)CCCN)c2ncccc2c1 (configuration not stated) has inhibition of Active
